Target: CDK2 (Homo sapiens, UniProt P24941)
Construct: host or cells: HEK293
Experiment: CDK2 HIBIT PQ (protein quantification), degradation
Type: cell-based
Conditions: PQ = Protein Quantification
RECORDED_METRIC: DC50 (nM)
Numbers only here, please. The scale is nM.

Q: Returns the measured DC50 for the input molecule. Input: CC(C)Oc1c(-c2cn[nH]c2)ncn2nc(N[C@H]3CCN(S(=O)(=O)c4cccc(CN5CCN(c6ccc7c(N8CCC(=O)NC8=O)nn(C)c7c6)C(C)C5)c4)C[C@H]3C)nc12 (stereo partly shown)
Ans: 2.2

Q: Need DC50 of CC(C)Oc1c(-c2cn[nH]c2)ncn2nc(Nc3ccc(S(=O)(=O)N(C)CCCN4CCN(c5ccc6c(c5)n(C)c(=O)n6C5CCC(=O)NC5=O)C[C@@H]4C(C)C)cc3F)nc12 (stereo partly shown) , thanks.
Ans: 0.2

Q: Find the recorded DC50 belonging to CC(C)Oc1c(-c2cn[nH]c2)ncn2nc(Nc3ccc(S(=O)(=O)c4cccc(CN5CC(c6ccc7c(c6)CN(C6CCC(=O)NC6=O)C7=O)C5)c4)cc3F)nc12 (racemic) and report it.
Ans: 2.2

Q: DC50 for CC(C)Oc1c(-c2cn[nH]c2)ncn2nc(Nc3ccc(S(=O)(=O)c4cccc(CN5CCN(c6ccc7c(N8CCC(=O)NC8=O)nn(C)c7c6)C(C(C)C)C5)c4)cc3F)nc12 (racemic) ?
Ans: 14.5

Q: Any idea what DC50 was measured for CC(C)Oc1c(-c2cn[nH]c2)ncn2nc(NC3CCN(S(=O)(=O)N4CCC(CN5CCC(c6cccc7c6n(C)c(=O)n7C6CCC(=O)NC6=O)CC5)CC4)CC3)nc12 (racemic) ?
Ans: 0.59

Q: Tell me the measured DC50 of CC(C)Oc1c(-c2cn[nH]c2)ncn2nc(Nc3ccc(S(=O)(=O)c4cccc(C[C@H]5C[C@@H](c6ccc7c(c6)CN([C@H]6CCC(=O)NC6=O)C7=O)C5)c4)cc3F)nc12 (stereo in doubt) , please.
Ans: 24.2

Q: I have this molecule here, CC(C)Oc1c(-c2cn[nH]c2)ncn2nc(Nc3ccc(S(=O)(=O)c4cccc(N5CCC(CN6CCN(c7ccc8c(c7)CN(C7CCC(=O)NC7=O)C8=O)CC6)CC5)c4)cc3F)nc12 (racemic) , and I need its recorded DC50.
Ans: 1.7

Q: Endpoint output: DC50 of CC(C)Oc1c(-c2cn[nH]c2)ncn2nc(Nc3ccc(S(=O)(=O)N(C)CCCN4CCC(c5ccc6c(c5)n(C)c(=O)n6C5CCC(=O)NC5=O)CC4)c4cnccc34)nc12 (racemic) . Value?
Ans: 0.3

Q: Any idea what its DC50 is? The molecule is CC(C)Oc1c(-c2cn[nH]c2)ncn2nc(Nc3ccc(S(=O)(=O)c4cccc(C[C@H]5C[C@H](c6ccc7c(N8CCC(=O)NC8=O)nn(C)c7c6)C5)c4)cc3F)nc12
Ans: 43.4

Q: I have this molecule here, CC(C)Oc1c(-c2cn[nH]c2)ncn2nc(Nc3ccc(S(=O)(=O)c4cccc(CN5CC6(C5)CN(c5ccc7c(c5)CN(C5CCC(=O)NC5=O)C7=O)C6)c4)cc3F)nc12 (racemic) , and I need its recorded DC50.
Ans: 3.76
